# Method Description: in vitro
# Format: in vitro ADME
# Condition Notes: human plasma, pH 7.4, 37 °C, read-out: Plasma stability t1/2 Human
Quick reference for half-life at 1 µM among some compounds

Compound	Lt Gt Eq	half-life at 1 µM [h]
O=C(/C=C/c1ccc(O[C@@H]2O[C@H](CO)[C@H](O)[C@H](O)[C@H]2O)cc1)Nc1ccc(OCCOc2ccc(NC(=O)/C=C/c3ccc(O[C@@H]4O[C@H](CO)[C@H](O)[C@H](O)[C@H]4O)cc3)cc2)cc1 [Compound D1]	=	3.73
O=C(CCc1ccc(O[C@@H]2O[C@H](CO)[C@H](O)[C@H](O)[C@H]2O)cc1)Nc1ccc(OCCOc2ccc(NC(=O)CCc3ccc(O[C@@H]4O[C@H](CO)[C@H](O)[C@H](O)[C@H]4O)cc3)cc2)cc1 [Compound D2]	=	2.21
O=C(N/N=C/c1ccc(OCCOc2ccc(/C=N/NC(=O)c3ccc(O[C@@H]4O[C@H](CO)[C@H](O)[C@H](O)[C@H]4O)cc3)cc2)cc1)c1ccc(O[C@@H]2O[C@H](CO)[C@H](O)[C@H](O)[C@H]2O)cc1 [Compound 14, reference compound]	=	2.06
O=C(/C=C/c1ccc(O[C@@H]2O[C@H](CO)[C@H](O)[C@H](O)[C@H]2O)cc1)Nc1ccc(OCCOc2ccc(NC(=O)/C=C/c3ccc(O[C@@H]4O[C@H](CO)[C@H](O)[C@H](O)[C@H]4O)cc3)cn2)nc1	>	4
O=C(CCc1ccc(O[C@@H]2O[C@H](CO)[C@H](O)[C@H](O)[C@H]2O)cc1)Nc1ccc(OCCOc2ccc(NC(=O)CCc3ccc(O[C@@H]4O[C@H](CO)[C@H](O)[C@H](O)[C@H]4O)cc3)cn2)nc1	=	3.58
O=C(CCc1ccc(O[C@@H]2O[C@H](CO)[C@H](O)[C@H](O)[C@H]2O)cc1)Nc1ccc(CCc2ccc(NC(=O)CCc3ccc(O[C@@H]4O[C@H](CO)[C@H](O)[C@H](O)[C@H]4O)cc3)cc2S(=O)(=O)O)c(S(=O)(=O)O)c1	>	4
